B1: PhoQ; a variant is named by its letters at X, in order, P23837 (parent)
chain: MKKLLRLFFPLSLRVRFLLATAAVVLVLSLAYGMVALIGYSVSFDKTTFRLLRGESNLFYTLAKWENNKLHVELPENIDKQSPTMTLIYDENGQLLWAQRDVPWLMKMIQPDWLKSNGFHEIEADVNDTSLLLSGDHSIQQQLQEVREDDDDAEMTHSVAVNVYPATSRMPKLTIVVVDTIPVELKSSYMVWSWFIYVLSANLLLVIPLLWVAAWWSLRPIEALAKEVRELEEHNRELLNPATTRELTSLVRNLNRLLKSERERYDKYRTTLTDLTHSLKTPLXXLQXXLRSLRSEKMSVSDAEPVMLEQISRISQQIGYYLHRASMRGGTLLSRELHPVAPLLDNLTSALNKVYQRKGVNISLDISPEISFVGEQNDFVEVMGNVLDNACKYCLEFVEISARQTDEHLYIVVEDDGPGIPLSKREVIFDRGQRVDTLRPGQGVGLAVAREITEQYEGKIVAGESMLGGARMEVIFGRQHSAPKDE

- Variants of: B1
- Test protocol: enrichment ratio after two sorts for PhoP signalling (ratio (wild type AVST 3.29)); higher = more functional
- Conditions used: with PhoP (E. coli)
Over roughly 140,000 sequences, “enrichment ratio after two sorts for PhoP signalling” has its median near 0; the highest 2% begin near 11. This is one part of a sample in which the highest values are shown more often than they occur.
Observable: enrichment ratio

GLVM; 16.2
TVSI; 17.4
GLWM; ≤ 0.25
RMVC; ≤ 0.25
LIFC; ≤ 0.25
NNEC; ≤ 0.25
AISC; 9.79
VHMT; ≤ 0.25
LWNH; ≤ 0.25
GLTA; ≤ 0.25
IFEI; ≤ 0.25
IDFC; ≤ 0.25
QRGH; ≤ 0.25
DDSI; ≤ 0.25
MGYI; 13.6
GIYF; ≤ 0.25
AKAR; ≤ 0.25
MGSV; 15.6
GLSF; 4.58
TGSV; 17.2
QKGY; ≤ 0.25
NISV; 3.96
GLCK; ≤ 0.25
DCAY; ≤ 0.25
TLSI; 18.6
MGHF; 0.887
WICG; ≤ 0.25
GLTI; 11.7
MGWA; ≤ 0.25
HNAE; ≤ 0.25
MGWR; ≤ 0.25
GMNN; ≤ 0.25
QNGV; 22.1
SNGP; ≤ 0.25
NRNH; ≤ 0.25
TGYS; 1.45
FICM; 12.9
YTEG; ≤ 0.25
VSFV; 0.649
QRGV; ≤ 0.25
PKYN; ≤ 0.25
KQIG; ≤ 0.25
AFIT; ≤ 0.25
FHQM; ≤ 0.25
NRFY; ≤ 0.25
NMRS; ≤ 0.25
GIMV; 2.38
ANVT; 15
